Test system: primary human skeletal myotubes (MYOs)
Assay: IRES screening (Table 28), Gaussia luciferase LNP-oRNA in primary human skeletal myotubes (MYOs)
Conditions: protein expression relative to positive control (SEQ ID NO 3282 = 1)
The entries below come with measured MYO AVG [Fold Change] values attached.
readout type: MYO AVG [Fold Change]

1. CCCCCCC(CCCC)C(=O)OCCCCCCN(CCCO)CCCCCCOC(=O)C(CCCC)CCCCCC (stereo not shown)    0.01764 Fold Change
2. CCCCCCCCCCCCC(CCCCCCCCCC)C(=O)OCCCCCCN(CCCCO)CCCCCCOC(=O)C(CCCCCCCCCC)CCCCCCCCCCCC (stereo not shown)    0.01866 Fold Change
3. CCCCCCCCCCC(CCCCCCCC)C(=O)OCCCCCCN(CCCO)CCCCCCOC(=O)C(CCCCCCCC)CCCCCCCCCC (stereo not shown)    0.03859 Fold Change
4. CCCCCCCCC(CCCCCC)C(=O)OCCCCCCN(CCCCCCOC(=O)C(CCCCCC)CCCCCCCC)CCCOC (stereo not shown)    0.0004126 Fold Change
5. CCCCCCCCC(CCCCCC)C(=O)OCCCCCCN(CCCCCCOC(=O)C(CCCCCC)CCCCCCCC)CCCC(=O)OCC (stereo not shown) [Lipid 48]    0.1303 Fold Change
6. CCCCCCCCC(CCCCCC)COC(=O)CCCCCCCCCN(CCCCO)CCCCCCCCCC(=O)OCC(CCCCCC)CCCCCCCC (stereo not shown)    0.02126 Fold Change
7. CCCCCCCCC(CCCCCC)COC(=O)CCCCCCCN(CCO)CCCCCCCC(=O)OCC(CCCCCC)CCCCCCCC (stereo not shown)    0.2249 Fold Change

* * *

Tested on: primary human hepatocytes (PHHs)
Assay: IRES screening (Table 28), Gaussia luciferase LNP-oRNA in primary human hepatocytes (PHHs)
Conditions: protein expression relative to positive control (SEQ ID NO 3282 = 1)
PHH AVG [Fold Change] values for the molecules below.
readout type: PHH AVG [Fold Change] (Fold Change)

1) CCCCCCCCC(CCCCCC)C(=O)OCCCCCCN(CCC#N)CCCCCCOC(=O)C(CCCCCC)CCCCCCCC (stereo not shown)    0.08942
2) CCCCCCCCC(CCCCCC)C(=O)OCCCCCCN(CCCCCCOC(=O)C(CCCCCC)CCCCCCCC)CC(O)CC (stereo not shown)    0.2391
3) CCCCCCCCC(CCCCCC)C(=O)OCCCCCCN(CCCCCCOC(=O)C(CCCCCC)CCCCCCCC)CCCCNC(C)=O (stereo not shown)    0
4) CCCCCCC(CCCC)COC(=O)CCCCCCCN(CCCCO)CCCCCCCC(=O)OCC(CCCC)CCCCCC (stereo not shown)    0.6215
5) CCCCCCCCC(CCCCCC)C(=O)OCCCCCCN(CCCCCCOC(=O)C(CCCCCC)CCCCCCCC)CC(O)CO (stereo not shown)    0.3984
6) CCCCCCCCCCC(CCCCCCCC)C(=O)OCCCCCCN(CCCO)CCCCCCOC(=O)C(CCCCCCCC)CCCCCCCCCC (stereo not shown)    0.2564
7) CCCCCCC(CCCC)C(=O)OCCCCCCN(CCCO)CCCCCCOC(=O)C(CCCC)CCCCCC (stereo not shown)    0.1221
